Measured target: T1, CD134 protein (His-tagged, Sino Biological Inc. 10481-H08H) (human, UniProt P43489 29-216)
T1 construct: bought protein coated on ELISA plates; also called OX40; TNFRSF4; not shown: His tag
T1 sequence (looked up): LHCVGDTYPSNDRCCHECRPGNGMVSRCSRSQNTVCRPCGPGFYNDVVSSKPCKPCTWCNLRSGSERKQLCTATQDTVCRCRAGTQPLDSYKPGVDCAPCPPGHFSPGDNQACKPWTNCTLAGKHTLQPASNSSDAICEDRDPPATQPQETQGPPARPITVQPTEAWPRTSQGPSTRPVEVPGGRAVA
Measurement description: ELISA, coated His-tagged CD134; further: test concentration or dose not given here
Property name: ELISA [abs. corr.]
Write your answer as a measured quantity: the number, then the unit.

Example binders with recorded ELISA [abs. corr.]:
>>> meas_value("P018.S.04.A.A06 (antibody, V domains shown, V regions on human Ig constant parts; also called AB134_5) VH: QSLEESGGRLVTPGTPLTLTCTVSGFSLHNYNIQWVRQAPGKGLEWIGWILTDGSPYCANWAKGRFTISKTSTTVDLKITSPTIEDTATYFCARMGDYNINGLWGPGTLVTVSS VL: AQVLTQTPSSVSAAVGGTVTINCQSSQRIYNNDFLSWYQQKPGQPPKLLIYAASTLASGVPSRFKGSGSGTQFTLTISDLESDDAATYYCQGGYSSSGWYLPFGGGTEVVVK")
"2.85 abs. corr."
>>> meas_value("P018.S.12.A.D05 (antibody, V domains shown, V regions on human Ig constant parts; also called AB134_70) VH: QEQLKESGGGVVTPGGTLTLTCTASAFSLNHYNIQWVRQAPGKGLEWIGWILTDGTEYYANWAKGRFTISKTSTTVDLKIASPTTEDTATYFCAREGDWGVDSLWGPGTLVTVSS VL: ALVMTQTPSPVSAAVGGTVTISCQSSQSVDNNDFLSWYQQKPGQPPKLLIYLASKLASGVPSRFSGSGSGTQFTLTISGVQSDDAATYYCKGLYFDSGWYAAFGGGTEVVVE")
"2.13 abs. corr."

API: the following record is the query input.
Can you share its ELISA [abs. corr.]? I mean this binder: P018.S.04.A.F06 (antibody, V domains shown, V regions on human Ig constant parts; also called AB134_13) VH: QSVEESGGRLVTPGTPLTLTCTVSGIDLSSSAMSWVRQAPGKGLEWIGIIGYNDFTYYANWAKGRFTISKTSTTVDLKMTSPTTEDTATYFCARGGSSSYSDYVFDPWGPGTLVTVSS VL: AFEMTQTPSSVSEPVGGTVTIKCQASQSIYSNLAWYQQKPGQRPKLLIYDASDLASGVPSRFSGSGYGTEFTLTISDLESADAATYYCQSYYGISSYGVAFGGGTEVVVK
2.36 abs. corr.
